# Target of assay: T1, bacterially produced human IL-6 (human, UniProt P05231 30-212)
# T1 construct: Immobilised on the Biacore chip; also called BACT IL-6 (2-1); bactIL-6
# Test: SPR (Biacore), periplasmic Fab
Assay readout: fold improvement of ka over 28A6 (parental) (fold)

# Binder, Unit text, Numeric readout
data = [
    ("55A11 (Fab, V domains shown, Periplasmic Fab; Suffix 'd' of the label not explained; also called 55A11d) VH: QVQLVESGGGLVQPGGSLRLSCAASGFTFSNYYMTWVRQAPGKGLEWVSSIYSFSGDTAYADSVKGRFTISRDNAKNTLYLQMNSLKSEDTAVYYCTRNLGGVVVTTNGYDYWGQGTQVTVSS VL: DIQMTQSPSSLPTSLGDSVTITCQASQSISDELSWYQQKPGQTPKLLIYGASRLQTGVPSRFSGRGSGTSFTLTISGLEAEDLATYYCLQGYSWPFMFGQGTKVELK", "fold", 0.79),
    ("48H1 (Fab, V domains shown, Periplasmic Fab; Suffix 'g2, R4' not explained; also called 48H1g2, R4) VH: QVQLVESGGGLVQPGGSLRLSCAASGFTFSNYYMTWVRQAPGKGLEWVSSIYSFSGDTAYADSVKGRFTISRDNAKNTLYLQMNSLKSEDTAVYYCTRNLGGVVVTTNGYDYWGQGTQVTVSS VL: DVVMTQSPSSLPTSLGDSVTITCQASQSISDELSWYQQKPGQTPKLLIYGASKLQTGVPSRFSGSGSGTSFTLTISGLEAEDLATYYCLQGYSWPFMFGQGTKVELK", "fold", 0.87),
    ("55E10 (Fab, V domains shown, Periplasmic Fab; Suffix 'g1' not explained; also called 55E10g1) VH: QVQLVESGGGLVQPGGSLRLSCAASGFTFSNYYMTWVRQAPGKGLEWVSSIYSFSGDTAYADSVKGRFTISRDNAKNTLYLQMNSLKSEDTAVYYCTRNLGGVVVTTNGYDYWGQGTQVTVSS VL: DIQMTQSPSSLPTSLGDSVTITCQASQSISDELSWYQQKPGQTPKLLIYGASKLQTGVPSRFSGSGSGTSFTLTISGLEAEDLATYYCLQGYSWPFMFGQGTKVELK", "fold", 0.81),
    ("55C11 (Fab, V domains shown, Periplasmic Fab; Suffix 'f' not explained; also called 55C11f) VH: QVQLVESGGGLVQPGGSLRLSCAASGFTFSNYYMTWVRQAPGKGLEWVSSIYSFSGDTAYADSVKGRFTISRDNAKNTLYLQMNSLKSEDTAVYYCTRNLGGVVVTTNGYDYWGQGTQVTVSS VL: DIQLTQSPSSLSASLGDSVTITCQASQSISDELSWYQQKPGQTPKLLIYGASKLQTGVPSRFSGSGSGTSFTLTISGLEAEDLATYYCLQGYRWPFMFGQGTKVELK", "fold", 0.96),
]

All figures here come from patent US20220073604A1.
